Numbers sourced from patent US6552060B1.

In this section we review reported pIC50 values for a set of molecules.
tested on: EMT6 mouse mammary tumor cells; assay: Cytotoxicity against EMT6 cells in culture (MTT); conditions: read-out: Disulfide Cytotoxicity (IC50), Table 5, 48 h exposure
pIC50: −log10 of the molar value.

Field: example entries. Status: answers known.
CC(C)SSc1ccccc1
< 3.74
CCC(C)SSc1ncccc1C(=O)O (stereo not shown)
< 3.74
COc1cccc(CSSC(C)C)c1
< 3.74
CC(O)C(C)SSc1ncnc2[nH]cnc12 (stereo not shown)
≤ 3.74
CCC(C)SSCC(C)C(=O)N1CCCC1C(=O)O (stereo not shown)
< 3.74

Kindly consider the entry below.
Please report pIC50 for the following molecule: CC(O)C(C)SSc1nc2ccccc2[nH]1 (stereo not shown) ≤ 3.74
